Each recorded value in this set is attributed to patent US20200339690A1.

target: human LILRB2-His (human, UniProt Q8N423 22-460); assay: SPR, Sierra Sensors MASS-2; antibody captured on anti-human Fc, LILRB2-His 65 to 0.27 nM, 1:1 Langmuir fit
Sequence (Q8N423 other isoform, or with tags, fused parts or gaps): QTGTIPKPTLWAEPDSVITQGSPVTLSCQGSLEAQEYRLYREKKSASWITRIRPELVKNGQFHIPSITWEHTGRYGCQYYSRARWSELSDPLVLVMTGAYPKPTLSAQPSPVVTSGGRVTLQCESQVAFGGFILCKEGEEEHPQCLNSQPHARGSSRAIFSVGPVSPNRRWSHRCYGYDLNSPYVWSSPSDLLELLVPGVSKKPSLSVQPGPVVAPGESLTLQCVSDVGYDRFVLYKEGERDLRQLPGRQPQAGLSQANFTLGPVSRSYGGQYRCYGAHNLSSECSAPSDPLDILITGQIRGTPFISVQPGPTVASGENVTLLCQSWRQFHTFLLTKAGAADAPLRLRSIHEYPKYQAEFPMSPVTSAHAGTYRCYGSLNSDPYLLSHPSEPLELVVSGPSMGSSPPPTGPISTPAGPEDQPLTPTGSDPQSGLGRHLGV
MEASURED_ATTRIBUTE: kon (M⁻¹ s⁻¹)
Lab book: enter the figure in M⁻¹ s⁻¹, no units written.

Q: Consider the binder J-17 (antibody, human IgG4 S228P, kappa, V domains shown, Human IgG4 chimera of murine origin; also called J-17.h) VH: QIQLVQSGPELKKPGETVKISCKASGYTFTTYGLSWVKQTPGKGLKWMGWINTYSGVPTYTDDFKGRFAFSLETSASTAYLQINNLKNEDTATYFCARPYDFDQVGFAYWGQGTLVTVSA VL: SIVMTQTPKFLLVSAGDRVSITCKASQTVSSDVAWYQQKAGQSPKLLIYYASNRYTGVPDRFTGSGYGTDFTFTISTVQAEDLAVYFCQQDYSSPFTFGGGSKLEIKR and give its measured kon.
Ans: 1.56e+06
